Sourced from patent US20210284734A1

molecular target: T1, His-tagged human PD-1 ECD (human, UniProt Q15116 25-170); test: SPR, IgG captured, monovalent PD-1 ECD analyte
T1 construct: bought from Acro Biosystems; not shown: His tag
T1 sequence (Q15116 25-170): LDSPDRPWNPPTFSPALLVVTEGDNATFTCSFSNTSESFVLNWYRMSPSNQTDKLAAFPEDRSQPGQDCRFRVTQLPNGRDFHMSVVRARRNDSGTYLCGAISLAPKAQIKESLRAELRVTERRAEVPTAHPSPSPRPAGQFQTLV
attribute.measured: kon (M⁻¹ s⁻¹)

binder | unit.string | readout.number
12748.15381 (antibody, human IgG1, lambda, L234A L235A, V domains shown, humanized, IgG1 LALA, lambda) VH: EVQLLESGGGLVQPGGSLRLSCAASGFTFSDYAMNWVRQAPGKGLEWVAGIGNDGSYTNYGAAVKGRATISRDNSKNTLYLQMNSLRAEDTAVYYCASDIRSRNDCSYFLGGCSSGFIDVWGQGTLVTVSS VL: SYELTQDPAVSVALGQTVRITCSGGSSYSYGWFQQKPGQAPVTVIYESNNRPSDIPDRFSGSSSGNTASLTITGAQAEDEADYYCGNADSSSGIFGSGTKVTVLG | M⁻¹ s⁻¹ | 3.2e+06
12748.16124 (antibody, human IgG1, lambda, L234A L235A, V domains shown, alternative germline VL variant of 12748.15381; IgG1 LALA, lambda) VH: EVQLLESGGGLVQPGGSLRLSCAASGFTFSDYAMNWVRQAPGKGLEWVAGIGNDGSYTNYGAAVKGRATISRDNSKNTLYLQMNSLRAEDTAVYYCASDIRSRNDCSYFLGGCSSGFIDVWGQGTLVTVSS VL: SYELTQPPSVSVSPGQTARITCSGGSSYSYGWFQQKPGQAPVTVIYESNNRPSDIPERFSGSSSGTTVTLTISGVQAEDEADYYCGNADSSSGIFGSGTKVTVLG | M⁻¹ s⁻¹ | 3.4e+06
12760.15375 (antibody, human IgG1, lambda, L234A L235A, V domains shown, humanized, IgG1 LALA, lambda) VH: EVQLLESGGGLVQPGGSLRLSCAASGFTFSTFNMVWVRQAPGKGLEYVAEISSDGSFTWYATAVKGRATISRDNSKNTVYLQMNSLRAEDTAVYYCAKSDCSSSYYGYSCIGIIDAWGQGTLVTVSS VL: SYELTQDPAVSVALGQTVRITCSGGISDDGSYYYGWFQQKPGQAPVTVIYINDRRPSNIPDRFSGSSSGNTASLTITGAQAEDEADYYCGSYDSSAGVGIFGSGTKVTVLG | M⁻¹ s⁻¹ | 1.2e+06
12865.15377 (antibody, human IgG1, lambda, L234A L235A, V domains shown, humanized, IgG1 LALA, lambda) VH: EVQLLESGGGLVQPGGSLRLSCAASGFDFSDHGMQWVRQAPGKGLEYVGVIDTTGRYTYYAPAVKGRATISRDNSKNTLYLQMNSLRAEDTAVYYCAKTTCVGGYLCNTVGSIDAWGQGTLVTVSS VL: SYELTQDPAVSVALGQTVRITCSGGGSSSYYGWYQQKPGQAPVTVIYDDTNRPSGIPDRFSGSSSGNTASLTITGAQAEDEADYYCGGYEGSSHAGIFGSGTKVTVLG | M⁻¹ s⁻¹ | 420000
